test.name: Pharmacokinetic study of indacaterol in rat lung tissues (MISPE, UPLC)
Format: in vivo, male Wistar rats
measurement.setup: male, Wistar, lung, inhaled or intranasal, 150 ug; rat lungs; single inhaled Onbrez Breezhaler capsule 150 µg indacaterol; n = 3 per sampling time point; mean ± SD

test.smiles | Cmax / µg/mL
CCc1cc2c(cc1CC)CC(NC[C@H](O)c1ccc(O)c3[nH]c(=O)ccc13)C2 | 51

---

test.name: Pharmacokinetic study of indacaterol in rat lung tissues (MISPE, UPLC)
Type: in vivo, male Wistar rats
measurement.setup: male, Wistar, lung, inhaled or intranasal, 150 ug; rat lungs; single inhaled capsule 150 µg; mean ± SD

compound | AUC(0-inf) [µg·h/mL]
CCc1cc2c(cc1CC)CC(NC[C@H](O)c1ccc(O)c3[nH]c(=O)ccc13)C2 [indacaterol] | 542

Where these numbers come from: paper PMC11452728
